target: EGFR exon 20 ASV insertion (V769_D770insASV) (Homo sapiens, UniProt P00533, INS769ASV); construct: expressed in transfected cells; host or cells: Ba/F3 (murine pro-B) cells, lentiviral transduction with pLVX-IRES puro; assay: Ba/F3-EGFR-Exon20-ASV cell anti-proliferation assay (MTS, CellTiter 96 AQueous One); format: cell-based; conditions: Ba/F3-EGFR-Exon20-ASV cells, 72 h, MTS signal
Sequence (P00533 with tags, fused parts or gaps INS769ASV): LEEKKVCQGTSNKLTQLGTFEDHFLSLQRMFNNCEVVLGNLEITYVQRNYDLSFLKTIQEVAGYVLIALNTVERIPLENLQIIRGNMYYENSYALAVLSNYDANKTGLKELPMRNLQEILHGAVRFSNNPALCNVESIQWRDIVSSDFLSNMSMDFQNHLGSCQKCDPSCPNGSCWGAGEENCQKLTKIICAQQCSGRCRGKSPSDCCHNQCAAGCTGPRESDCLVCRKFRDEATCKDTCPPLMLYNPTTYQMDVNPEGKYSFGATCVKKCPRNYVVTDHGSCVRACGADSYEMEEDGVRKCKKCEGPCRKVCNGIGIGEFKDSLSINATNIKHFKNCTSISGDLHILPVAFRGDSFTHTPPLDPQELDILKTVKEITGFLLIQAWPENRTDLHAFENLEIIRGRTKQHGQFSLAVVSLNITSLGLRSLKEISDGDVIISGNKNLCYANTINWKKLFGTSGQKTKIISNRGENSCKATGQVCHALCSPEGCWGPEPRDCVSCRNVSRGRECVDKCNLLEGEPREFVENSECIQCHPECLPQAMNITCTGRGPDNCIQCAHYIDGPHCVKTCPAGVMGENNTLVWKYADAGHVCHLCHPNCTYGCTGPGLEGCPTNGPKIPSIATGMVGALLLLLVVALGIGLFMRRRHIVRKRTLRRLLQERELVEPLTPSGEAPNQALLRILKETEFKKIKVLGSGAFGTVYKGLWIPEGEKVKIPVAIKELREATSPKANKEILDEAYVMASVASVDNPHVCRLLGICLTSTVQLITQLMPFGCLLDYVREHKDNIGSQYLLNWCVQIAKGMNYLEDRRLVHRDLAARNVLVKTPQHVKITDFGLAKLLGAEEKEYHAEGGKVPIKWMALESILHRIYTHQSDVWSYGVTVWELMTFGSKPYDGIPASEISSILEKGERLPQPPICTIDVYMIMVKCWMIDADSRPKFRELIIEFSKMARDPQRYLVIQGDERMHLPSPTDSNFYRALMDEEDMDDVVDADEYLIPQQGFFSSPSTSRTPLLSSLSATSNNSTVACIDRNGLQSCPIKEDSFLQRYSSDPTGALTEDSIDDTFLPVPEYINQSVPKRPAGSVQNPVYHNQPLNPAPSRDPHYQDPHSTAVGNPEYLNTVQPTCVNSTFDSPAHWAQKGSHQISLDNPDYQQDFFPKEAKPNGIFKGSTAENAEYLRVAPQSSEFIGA
QUANTITY_NAME: IC50

See these solved cases before continuing.
> print(dat)
                         chemical.structure     test.value
1  C=CC(=O)Nc1cc(Nc2nccc(-c3c4n(c5ccccc35)CCCC4)n2)c(OC)cc1N(C)CCN(C)C       < 100 nM
2  C=CC(=O)Nc1cc(Nc2nccc(-c3c4n(c5ccccc35)CCN(C)C4=O)n2)c(OC)cc1N(C)CCN(C)C  100 to 500 nM

Reported EGFR exon 20 ASV insertion (V769_D770insASV) (Homo sapiens, UniProt P00533, INS769ASV) IC50 for item C=CC(=O)Nc1cc(Nc2nccc(-c3c4n(c5ccccc35)CCOC4)n2)c(OC)cc1N(C)CCN(C)C was < 100 nM

Reported EGFR exon 20 ASV insertion (V769_D770insASV) (Homo sapiens, UniProt P00533, INS769ASV) IC50 for item C=CC(=O)Nc1cc(Nc2ncc(C#N)c(-c3c4n(c5ccccc35)CCOC4)n2)c(OC)cc1N(C)CCN(C)C was 100 to 500 nM
